tested on: HCC-78; assay: relative viability (nuclei count vs DMSO), 5 days (fraction); higher = more cells survive; conditions: first compound 0.1581 µM
Binary label based on relative viability with cut-off 0.7: below gives 1, not below gives 0.

Input CC1(C)CCC(c2ccc(Cl)cc2)=C(CN2CCN(c3ccc(C(=O)NS(=O)(=O)c4ccc(N[C@H](CCN5CCOCC5)CSc5ccccc5)c(S(=O)(=O)C(F)(F)F)c4)cc3)CC2)C1 [Navitoclax] + C[C@@H](Oc1cc(-c2cnn(C3CCNCC3)c2)cnc1N)c1c(Cl)ccc(F)c1Cl [Crizotinib] (partner 1 µM) ; condition: relative viability strictly below 0.7. Does it hold?
1

Input CC1(C)CCC(c2ccc(Cl)cc2)=C(CN2CCN(c3ccc(C(=O)NS(=O)(=O)c4ccc(N[C@H](CCN5CCOCC5)CSc5ccccc5)c(S(=O)(=O)C(F)(F)F)c4)cc3)CC2)C1 [Navitoclax] + Nc1nc2[nH]cc(CCc3ccc(C(=O)N[C@@H](CCC(=O)O)C(=O)O)cc3)c2c(=O)[nH]1 [Pemetrexed] (partner 0.2 µM) ; condition: relative viability strictly below 0.7. Does it hold?
0

Input CC1(C)CCC(c2ccc(Cl)cc2)=C(CN2CCN(c3ccc(C(=O)NS(=O)(=O)c4ccc(N[C@H](CCN5CCOCC5)CSc5ccccc5)c(S(=O)(=O)C(F)(F)F)c4)cc3)CC2)C1 [Navitoclax] + CC(=O)Nc1cccc(-n2c(=O)n(C3CC3)c(=O)c3c(Nc4ccc(I)cc4F)n(C)c(=O)c(C)c32)c1 [Trametinib] (partner 0.02 µM) ; condition: relative viability strictly below 0.7. Does it hold?
0

Input CC1(C)CCC(c2ccc(Cl)cc2)=C(CN2CCN(c3ccc(C(=O)NS(=O)(=O)c4ccc(N[C@H](CCN5CCOCC5)CSc5ccccc5)c(S(=O)(=O)C(F)(F)F)c4)cc3)CC2)C1 [Navitoclax] + CS(=O)(=O)N1CCN(Cc2cc3nc(-c4cccc5[nH]ncc45)nc(N4CCOCC4)c3s2)CC1 [Pictilisib] (partner 1 µM) ; condition: relative viability strictly below 0.7. Does it hold?
1

Input CC1(C)CCC(c2ccc(Cl)cc2)=C(CN2CCN(c3ccc(C(=O)NS(=O)(=O)c4ccc(N[C@H](CCN5CCOCC5)CSc5ccccc5)c(S(=O)(=O)C(F)(F)F)c4)cc3)CC2)C1 [Navitoclax] + CS(=O)(=O)CCNCc1ccc(-c2ccc3ncnc(Nc4ccc(OCc5cccc(F)c5)c(Cl)c4)c3c2)o1 [Lapatinib] (partner 2 µM) ; condition: relative viability strictly below 0.7. Does it hold?
0

###

test system: NCI-H1395; assay: relative viability (nuclei count vs DMSO), 5 days (fraction); higher = more cells survive; details: first compound 8 µM
measure name: relative viability

// sample C=C1C(=O)O[C@@H](CCCCCCCC)[C@@H]1C(=O)O [C-75] + CC1(C)CCC(c2ccc(Cl)cc2)=C(CN2CCN(c3ccc(C(=O)NS(=O)(=O)c4ccc(N[C@H](CCN5CCOCC5)CSc5ccccc5)c(S(=O)(=O)C(F)(F)F)c4)cc3)CC2)C1 [Navitoclax] (partner 0.5 µM) , its relative viability was 1.26

// sample C=C1C(=O)O[C@@H](CCCCCCCC)[C@@H]1C(=O)O [C-75] + O=C(c1cc(Cc2n[nH]c(=O)c3ccccc23)ccc1F)N1CCN(C(=O)C2CC2)CC1 [Olaparib] (partner 8 µM) , its relative viability was 0.511

// sample C=C1C(=O)O[C@@H](CCCCCCCC)[C@@H]1C(=O)O [C-75] + Cc1cc(Nc2cc(N3CCN(C)CC3)nc(Sc3ccc(NC(=O)C4CC4)cc3)n2)n[nH]1 [Tozasertib] (partner 0.1 µM) , its relative viability was 0.795

// sample C=C1C(=O)O[C@@H](CCCCCCCC)[C@@H]1C(=O)O [C-75] + CS(=O)(=O)N1CCN(Cc2cc3nc(-c4cccc5[nH]ncc45)nc(N4CCOCC4)c3s2)CC1 [Pictilisib] (partner 1 µM) , its relative viability was 0.7

###

tested on: EMC-BAC-2; experiment: relative viability (nuclei count vs DMSO), 5 days (fraction); higher = more cells survive; conditions: first compound 0.1 µM
measure name: relative viability
// keep it numeric: no unit symbol after the value

// sample NC(=O)Nc1cc(-c2cccc(F)c2)sc1C(=O)N[C@H]1CCCNC1 [AZD7762] + Cc1cc(Nc2cc(N3CCN(C)CC3)nc(Sc3ccc(NC(=O)C4CC4)cc3)n2)n[nH]1 [Tozasertib] (partner 0.1 µM) , its relative viability was 0.326

// sample NC(=O)Nc1cc(-c2cccc(F)c2)sc1C(=O)N[C@H]1CCCNC1 [AZD7762] + CC1(C)CCC(c2ccc(Cl)cc2)=C(CN2CCN(c3ccc(C(=O)NS(=O)(=O)c4ccc(N[C@H](CCN5CCOCC5)CSc5ccccc5)c(S(=O)(=O)C(F)(F)F)c4)cc3)CC2)C1 [Navitoclax] (partner 0.5 µM) , its relative viability was 1.16

// sample NC(=O)Nc1cc(-c2cccc(F)c2)sc1C(=O)N[C@H]1CCCNC1 [AZD7762] + O=C(CCCCCCC(=O)Nc1ccccc1)NO [Vorinostat] (partner 1 µM) , its relative viability was 0.523

// sample NC(=O)Nc1cc(-c2cccc(F)c2)sc1C(=O)N[C@H]1CCCNC1 [AZD7762] + O=C(c1cc(Cc2n[nH]c(=O)c3ccccc23)ccc1F)N1CCN(C(=O)C2CC2)CC1 [Olaparib] (partner 8 µM) , its relative viability was 0.626

###

Please go through the items and note down their relative viability.
system: NCI-H2405; test: relative viability (nuclei count vs DMSO), 5 days (fraction); higher = more cells survive; conditions: first compound 0.1581 µM
// keep it numeric: no unit symbol after the value

// sample CC1(C)CCC(c2ccc(Cl)cc2)=C(CN2CCN(c3ccc(C(=O)NS(=O)(=O)c4ccc(N[C@H](CCN5CCOCC5)CSc5ccccc5)c(S(=O)(=O)C(F)(F)F)c4)cc3)CC2)C1 [Navitoclax] + Nc1nc2[nH]cc(CCc3ccc(C(=O)N[C@@H](CCC(=O)O)C(=O)O)cc3)c2c(=O)[nH]1 [Pemetrexed] (partner 0.2 µM) , its relative viability was 0.994

// sample CC1(C)CCC(c2ccc(Cl)cc2)=C(CN2CCN(c3ccc(C(=O)NS(=O)(=O)c4ccc(N[C@H](CCN5CCOCC5)CSc5ccccc5)c(S(=O)(=O)C(F)(F)F)c4)cc3)CC2)C1 [Navitoclax] + CC(C)C[C@H](NC(=O)[C@H](Cc1ccccc1)NC(=O)c1cnccn1)B(O)O [Bortezomib] (partner 0.002 µM) , its relative viability was 0.974

// sample CC1(C)CCC(c2ccc(Cl)cc2)=C(CN2CCN(c3ccc(C(=O)NS(=O)(=O)c4ccc(N[C@H](CCN5CCOCC5)CSc5ccccc5)c(S(=O)(=O)C(F)(F)F)c4)cc3)CC2)C1 [Navitoclax] + Cc1cc(Nc2cc(N3CCN(C)CC3)nc(Sc3ccc(NC(=O)C4CC4)cc3)n2)n[nH]1 [Tozasertib] (partner 0.1 µM) , its relative viability was 0.731

// sample CC1(C)CCC(c2ccc(Cl)cc2)=C(CN2CCN(c3ccc(C(=O)NS(=O)(=O)c4ccc(N[C@H](CCN5CCOCC5)CSc5ccccc5)c(S(=O)(=O)C(F)(F)F)c4)cc3)CC2)C1 [Navitoclax] + O=C(CCCCCCC(=O)Nc1ccccc1)NO [Vorinostat] (partner 1 µM) , its relative viability was 1

###

system: NCI-H2228; experiment: relative viability (nuclei count vs DMSO), 5 days (fraction); higher = more cells survive; details: first compound 0.8 µM
Binary label based on relative viability with cut-off 0.5: below gives true, not below gives false.

Input Oc1nc(-c2ccc(C(F)(F)F)cc2)nc2c1CSCC2 [XAV939] + O=C(CCCCCCC(=O)Nc1ccccc1)NO [Vorinostat] (partner 1 µM) ; condition: relative viability strictly below 0.5. Does it hold?
false

Input Oc1nc(-c2ccc(C(F)(F)F)cc2)nc2c1CSCC2 [XAV939] + CC(=O)Nc1cccc(-n2c(=O)n(C3CC3)c(=O)c3c(Nc4ccc(I)cc4F)n(C)c(=O)c(C)c32)c1 [Trametinib] (partner 0.02 µM) ; condition: relative viability strictly below 0.5. Does it hold?
false

Input Oc1nc(-c2ccc(C(F)(F)F)cc2)nc2c1CSCC2 [XAV939] + CS(=O)(=O)N1CCN(Cc2cc3nc(-c4cccc5[nH]ncc45)nc(N4CCOCC4)c3s2)CC1 [Pictilisib] (partner 1 µM) ; condition: relative viability strictly below 0.5. Does it hold?
true

Input C=C1C(=O)O[C@@H](CCCCCCCC)[C@@H]1C(=O)O [C-75] + O=C(CCCCCCC(=O)Nc1ccccc1)NO [Vorinostat] (partner 1 µM) ; condition: relative viability strictly below 0.5. Does it hold?
false

Input C=C1C(=O)O[C@@H](CCCCCCCC)[C@@H]1C(=O)O [C-75] + COc1cc2c(Oc3ccc(NC(=O)C4(C(=O)Nc5ccc(F)cc5)CC4)cc3F)ccnc2cc1OCCCN1CCOCC1 [Foretinib] (partner 0.25 µM) ; condition: relative viability strictly below 0.5. Does it hold?
false

Input Oc1nc(-c2ccc(C(F)(F)F)cc2)nc2c1CSCC2 [XAV939] + C[C@]1(O)C[C@@H](c2nc(-c3ccc4ccc(-c5ccccc5)nc4c3)c3c(N)nccn32)C1 [Linsitinib] (partner 1 µM) ; condition: relative viability strictly below 0.5. Does it hold?
false

Input Oc1nc(-c2ccc(C(F)(F)F)cc2)nc2c1CSCC2 [XAV939] + C[C@@H](Oc1cc(-c2cnn(C3CCNCC3)c2)cnc1N)c1c(Cl)ccc(F)c1Cl [Crizotinib] (partner 1 µM) ; condition: relative viability strictly below 0.5. Does it hold?
true

Input C=C1C(=O)O[C@@H](CCCCCCCC)[C@@H]1C(=O)O [C-75] + Cc1cc(Nc2cc(N3CCN(C)CC3)nc(Sc3ccc(NC(=O)C4CC4)cc3)n2)n[nH]1 [Tozasertib] (partner 0.1 µM) ; condition: relative viability strictly below 0.5. Does it hold?
true

Input C=C1C(=O)O[C@@H](CCCCCCCC)[C@@H]1C(=O)O [C-75] + N=C(N)NC(=N)NCCc1ccccc1 [Phenformin] (partner 250 µM) ; condition: relative viability strictly below 0.5. Does it hold?
true

Input C=C1C(=O)O[C@@H](CCCCCCCC)[C@@H]1C(=O)O [C-75] + COc1cccc2cc(-c3nc([C@H]4CC[C@H](C(=O)O)CC4)n4ncnc(N)c34)[nH]c12 [OSI-027] (partner 0.5 µM) ; condition: relative viability strictly below 0.5. Does it hold?
true
